# Target Or Test System: human MCH receptor expressed from the open reading frame cDNA SEQ. ID. NO. 1 in 293-AEQ17 cells (human, UniProt Q99705 1-353)
# Sequence (Q99705 whole entry): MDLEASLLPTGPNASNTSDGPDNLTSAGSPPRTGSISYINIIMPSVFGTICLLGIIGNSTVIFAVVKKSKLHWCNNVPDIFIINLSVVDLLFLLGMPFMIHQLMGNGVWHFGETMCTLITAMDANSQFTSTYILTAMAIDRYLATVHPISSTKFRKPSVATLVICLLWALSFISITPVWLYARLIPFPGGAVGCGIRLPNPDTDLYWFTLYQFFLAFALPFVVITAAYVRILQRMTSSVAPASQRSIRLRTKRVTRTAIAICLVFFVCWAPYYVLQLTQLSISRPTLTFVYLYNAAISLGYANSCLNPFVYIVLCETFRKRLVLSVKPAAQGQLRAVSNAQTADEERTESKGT
# Measurement Notes: cell-based or functional assay
Bridges are numbered along the chain shown (N, C = ends).
Result Type: EC50

Asked: I would be grateful if you could share the reported EC50 for Ac-RCMLGRVYRPC-NH2 (disulfide 2-11 (inferred), Corresponds to MCH positions 6-16; also called ID; NO; 7 MCH analog) [truncated MCH analog SEQ. ID. NO. 7: Ac-Arg-Cys-Met-Leu-Gly-Arg-Val-Tyr-Arg-Pro-Cys-amide] .
Given back: 20 nM

Asked: Item under review: RCMLXRVYRPC (D-Glu at position 10; N-terminal acetyl, C-terminal amide, Cys-Cys disulfide as in SEQ. ID. NO. 7, ID; NO; 7 peptide; MCH position numbering) [MCH analog SEQ. ID. NO. 58 (position 10: D-Glu)] . Reported EC50?
Given back: > 10000 nM

Asked: Fill blank: measured EC50 of the binder Ac-RCMLERVYRPC-NH2 (disulfide 2-11 (inferred), ID; NO; 7 peptide; MCH position numbering) [MCH analog SEQ. ID. NO. 54 (position 10: Glu)] is ____.
Given back: > 10000 nM

Asked: Quick check: EC50 of Ac-RCMLPRVYRPC-NH2 (disulfide 2-11 (inferred), ID; NO; 7 peptide; MCH position numbering) [MCH analog SEQ. ID. NO. 50 (position 10: Pro)] ?
Given back: 519 nM

Asked: Requested field: EC50. Item: Ac-RCMLSRVYRPC-NH2 (disulfide 2-11 (inferred), ID; NO; 7 peptide; MCH position numbering) [MCH analog SEQ. ID. NO. 52 (position 10: Ser)]
Given back: 65 nM

Asked: Look up EC50 for this binder: RCMLXRVYRPC (D-Lys at position 10; N-terminal acetyl, C-terminal amide, Cys-Cys disulfide as in SEQ. ID. NO. 7) [MCH analog SEQ. ID. NO. 59 (position 10: D-Lys)]
Given back: > 10000 nM
